# testTarget: EPHB1 (UniProt P54762)
# Sequence (P54762 whole entry, looked up): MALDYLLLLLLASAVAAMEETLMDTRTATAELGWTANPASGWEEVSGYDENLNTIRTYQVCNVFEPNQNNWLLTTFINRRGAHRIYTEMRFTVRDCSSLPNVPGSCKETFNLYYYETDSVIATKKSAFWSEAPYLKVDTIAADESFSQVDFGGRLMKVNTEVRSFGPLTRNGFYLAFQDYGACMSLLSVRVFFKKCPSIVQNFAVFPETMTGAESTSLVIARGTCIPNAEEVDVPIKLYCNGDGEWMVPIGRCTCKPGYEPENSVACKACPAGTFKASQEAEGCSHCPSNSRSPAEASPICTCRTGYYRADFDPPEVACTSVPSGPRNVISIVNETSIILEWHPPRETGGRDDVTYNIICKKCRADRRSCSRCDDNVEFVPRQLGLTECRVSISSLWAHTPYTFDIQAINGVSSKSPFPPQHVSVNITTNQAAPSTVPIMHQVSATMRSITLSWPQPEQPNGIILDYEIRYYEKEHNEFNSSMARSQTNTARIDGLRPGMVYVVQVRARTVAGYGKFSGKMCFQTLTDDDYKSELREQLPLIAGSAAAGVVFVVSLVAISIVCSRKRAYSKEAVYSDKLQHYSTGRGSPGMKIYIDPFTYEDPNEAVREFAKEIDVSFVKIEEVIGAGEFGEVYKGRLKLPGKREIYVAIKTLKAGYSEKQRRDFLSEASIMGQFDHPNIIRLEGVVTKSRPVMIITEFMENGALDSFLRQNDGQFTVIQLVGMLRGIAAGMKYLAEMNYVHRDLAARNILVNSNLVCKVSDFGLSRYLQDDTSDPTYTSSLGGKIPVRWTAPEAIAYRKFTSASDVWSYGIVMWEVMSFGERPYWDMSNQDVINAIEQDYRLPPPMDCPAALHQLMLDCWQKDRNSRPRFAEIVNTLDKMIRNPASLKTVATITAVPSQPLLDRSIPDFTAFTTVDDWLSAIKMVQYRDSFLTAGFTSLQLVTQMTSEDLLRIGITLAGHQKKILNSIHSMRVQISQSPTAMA
# assayMethodText: phosphorylation enrichment, bacterial display (enrichment ratio); higher = better substrate or ligand; peptides without Tyr show the background;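 also: 11-residue human phosphosite peptides and single-mutation variants displayed on the E. coli surface, counted by deep sequencing, each peptide's frequency after selection divided by its frequency in the unselected input library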;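 also: frequency after pTyr selection over input frequency; kinase dosed for 20-30% of maximal phosphorylation in three min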
measure: phosphorylation enrichment

# residueSequence, measure, assayResult
data = [
    ("IQKWEYVPLGP [FAH_Y244]", "phosphorylation enrichment", 0.612),
    ("QNTGDDFDLFG [PTPN11_Y62_Y62D_YF]", "phosphorylation enrichment", 0.599),
    ("KDKLPYPYDDP [GPX2_Y125]", "phosphorylation enrichment", 0.599),
    ("TLLERYGMIEI [ACSF3_Y355_T358I]", "phosphorylation enrichment", 0.606),
    ("IVRSLYEDLED [VHL_Y185]", "phosphorylation enrichment", 0.584),
    ("GDPTEYFITAI [IGSF22_Y501_S503I_YF]", "phosphorylation enrichment", 0.584),
]

* * *

# System: c-Abl (mouse)
# assayMethodText: phosphorylation enrichment, bacterial display (enrichment ratio); higher = better substrate or ligand; peptides without Tyr show the background
measure: phosphorylation enrichment

# residueSequence, assayResult
data = [
    ("EQKKFYNAMKK [SCN5A_Y1495_YF]", 0.52),
    ("EREFKYGAHKF [OAT_Y50_N54K_YF]", 0.496),
    ("QTEAEYRFIYM [PTPN11_Y511_Q510E]", 1.26),
    ("VITTLYIGFLG [KCNQ1_Y267_L262V]", 0.931),
    ("PKAWNYELPAT [PROM1_Y34]", 0.735),
    ("QFKGKYLAKHN [CASK_Y712_D710G_YF]", 0.467),
    ("ALTDNYMYVVI [HAGH_Y61_L64V]", 0.952),
    ("EILLSYPRTGY [TGM1_Y365_L366P]", 0.658),
    ("VPANRYDLLRL [FARSB_Y72_C76R]", 0.498),
]

* * *

# testTarget: Fyn (UniProt P06241)
# Sequence (P06241 whole entry, looked up): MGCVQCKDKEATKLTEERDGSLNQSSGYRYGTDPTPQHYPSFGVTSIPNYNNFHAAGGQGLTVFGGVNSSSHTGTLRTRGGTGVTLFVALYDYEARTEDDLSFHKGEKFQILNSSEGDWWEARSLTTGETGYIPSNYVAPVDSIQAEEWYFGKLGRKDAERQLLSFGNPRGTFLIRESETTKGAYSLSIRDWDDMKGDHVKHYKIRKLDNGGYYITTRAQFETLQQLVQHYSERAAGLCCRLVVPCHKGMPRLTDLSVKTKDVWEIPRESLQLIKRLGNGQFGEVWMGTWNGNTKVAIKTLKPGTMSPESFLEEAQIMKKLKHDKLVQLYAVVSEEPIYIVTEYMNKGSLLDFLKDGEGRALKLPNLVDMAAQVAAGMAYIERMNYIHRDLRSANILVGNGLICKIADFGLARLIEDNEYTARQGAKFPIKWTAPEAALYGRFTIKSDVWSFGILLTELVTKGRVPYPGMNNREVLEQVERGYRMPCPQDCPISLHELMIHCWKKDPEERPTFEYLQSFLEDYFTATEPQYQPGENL
# assayMethodText: phosphorylation enrichment, bacterial display (enrichment ratio); higher = better substrate or ligand; peptides without Tyr show the background
Listed sequences paired with reported phosphorylation enrichment
measure: phosphorylation enrichment

# residueSequence, assayResult
data = [
    ("HKLSFNEFDFE [BTK_Y40_Y40N_YF]", 0.834),
    ("VHNLDYFKMTT [FGFR3_Y647_K650M_YF]", 0.33),
    ("HLDRSYSYSYS [PEAR1_Y890_R885H]", 0.424),
]

* * *

# Test system: c-Src
# assayMethodText: phosphorylation enrichment, bacterial display (enrichment ratio); higher = better substrate or ligand; peptides without Tyr show the background
Listed sequences paired with reported phosphorylation enrichment
measure: phosphorylation enrichment

# residueSequence, assayResult
records = [
    ("ASNNPYFRDQA [RPGRIP1_Y846]", 0.512),
    ("WRRLIYRCQVG [NR2E3_Y81_R76W]", 0.494),
    ("TFMKQYPKVFL [CNBD1_Y70]", 0.486),
    ("ARLEYCENEKK [IRS1_Y47_Y47C]", 0.486),
]

* * *

Listed sequences paired with reported phosphorylation enrichment
# testTarget: Fes (UniProt P07332)
# Sequence (P07332 whole entry, looked up): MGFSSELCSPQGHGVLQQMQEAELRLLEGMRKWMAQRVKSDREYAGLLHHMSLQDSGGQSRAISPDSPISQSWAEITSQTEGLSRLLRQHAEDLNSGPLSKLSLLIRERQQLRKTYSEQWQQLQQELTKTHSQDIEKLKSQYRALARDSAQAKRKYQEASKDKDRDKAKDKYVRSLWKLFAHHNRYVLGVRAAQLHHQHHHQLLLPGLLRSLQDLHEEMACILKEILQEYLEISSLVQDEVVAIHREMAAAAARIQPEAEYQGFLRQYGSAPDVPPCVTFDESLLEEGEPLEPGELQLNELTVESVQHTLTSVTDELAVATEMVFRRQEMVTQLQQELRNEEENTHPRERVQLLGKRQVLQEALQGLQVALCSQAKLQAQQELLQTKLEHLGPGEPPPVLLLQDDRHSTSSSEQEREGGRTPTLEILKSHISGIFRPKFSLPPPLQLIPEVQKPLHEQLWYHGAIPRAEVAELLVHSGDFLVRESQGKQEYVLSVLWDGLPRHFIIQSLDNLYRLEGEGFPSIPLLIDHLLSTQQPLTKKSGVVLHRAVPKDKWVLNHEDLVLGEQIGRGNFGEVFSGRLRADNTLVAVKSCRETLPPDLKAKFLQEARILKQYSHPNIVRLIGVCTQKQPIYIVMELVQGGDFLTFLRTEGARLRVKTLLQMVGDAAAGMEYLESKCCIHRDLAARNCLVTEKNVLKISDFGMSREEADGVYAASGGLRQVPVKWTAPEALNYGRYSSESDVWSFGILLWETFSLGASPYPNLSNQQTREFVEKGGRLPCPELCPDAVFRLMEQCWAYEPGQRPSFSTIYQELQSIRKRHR
# assayMethodText: phosphorylation enrichment, bacterial display (enrichment ratio); higher = better substrate or ligand; peptides without Tyr show the background
measure: phosphorylation enrichment

# residueSequence, assayResult
rows = [
    ("TVEDHYFEGGI [TKT_Y563_YF]", 1.05),
    ("FDAHIYEGCVI [PRKCD_Y64_R67C]", 1.44),
    ("LSSLAYSGKDA [FXN_Y205]", 0.703),
    ("LFMGDYVGRGY [PPP2CA_Y86_D88G]", 1.21),
    ("PSALGYSPSLR [LLGL2_Y40]", 0.887),
    ("DRQASYLDKVR [KRT16_Y131_L128Q]", 0.662),
    ("SLRAHYDTPRS [DOK7_Y405]", 0.448),
    ("HLDRSYSYSYS [PEAR1_Y890_R885H]", 0.583),
    ("REIIAYQPYGK [PRKCG_Y529_P524R]", 0.721),
    ("DQGEQYKKELE [LMNA_Y259_V256G]", 1.39),
    ("WIPIQCPIISE [NOG_Y222_Y222C]", 1.41),
    ("SETSRYLSDLF [KCNJ3_Y67]", 1.21),
    ("TVFSDYLHPQY [CCPG1_Y569]", 0.944),
    ("HKANEYFPVVI [ADAMTS18_Y764_L769I_YF]", 0.973),
    ("NCLRVYVAGRF [CRB1_Y711_E710V]", 1.15),
    ("PEVSGYCHYAD [TG_Y234_C237Y]", 1.1),
    ("CPYNLYAEQFS [HGD_Y40_L44F]", 1.16),
    ("SKNYTYIWWLN [PSG4_Y271]", 1.14),
    ("DTKDDYNALSV [IL17RB_Y457]", 1.07),
    ("DLAGRYYALKS [CKB_Y173]", 0.878),
    ("YRASYYRRGDR [LTK_Y677]", 0.485),
    ("CTTIHYDFMCN [TP53_Y234_N235D_YF]", 1.03),
    ("YMKEPYIQSRF [HIPK4_Y175_V171M]", 0.703),
    ("CEHRGSLFLAI [TEK_Y897_Y897S_YF]", 1.16),
    ("PNQRRYVFFFS [PTEN_Y174_S170N_YF]", 1.65),
    ("VHNLDYFKETT [FGFR3_Y647_K650E_YF]", 0.854),
    ("LVMFIYVIFGM [SCN1A_Y1684_A1685V]", 0.673),
    ("VNQSGYTLIRK [ATP6V0A2_Y688_R685Q]", 0.563),
    ("LGEGSYGKVKE [STK11_Y60]", 1.5),
    ("FCVDCYKNFVA [FHL1_Y213_YF]", 0.957),
    ("NGTVTYAIIAG [CDH23_Y1672_V1675I]", 1.28),
    ("KVDKECEVRVR [GHR_Y226_Y226C]", 0.832),
    ("RDEHGYISRCF [HSPB1_Y133_Q128R]", 1.65),
    ("AQAGEYGAEAL [HBA1_Y25_H21Q]", 0.96),
    ("HFVDEYDPTIE [KRAS_Y32]", 1.79),
    ("RVQKRYILDNV [RCN1_Y115_F117L]", 0.463),
    ("YGSGNYNVFGN [HNRNPA2B1_Y300_D302V]", 0.828),
    ("NDQPDYDSVAS [GIT2_Y392]", 1.19),
    ("AGIKAYQSCLQ [ADGRA2_Y377_T375K]", 0.983),
    ("CLNAIYQNNLT [GSR_Y158_R153C]", 0.996),
    ("NACGLYFKLHN [GATA2_Y376_YF]", 0.979),
    ("GHEFIYVDRMQ [PDGFRB_Y581_P584R_YF]", 0.836),
    ("PKAWNYELPAT [PROM1_Y34]", 0.972),
    ("LHNLFYQLEAE [PKP2_Y616_S615F]", 2.87),
    ("VDTRAYLTSAT [MT-CO1_Y304_F305L]", 0.763),
]
